PROCEDURE DETAILS: NCI Yeast Anticancer Drug Screen. Data for the rad50 strain (AID 155);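 note: 0% = growth of vehicle-only cultures of the same strain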
REPORTED CONDITIONS: S. cerevisiae rad50 strain growth inhibition; at 50.0 µM; active compounds read high
Compounds without any hit were thinned out: in the full panel of roughly 79,000, 15% have a hit.
# label = 1.0 if growth inhibition >= 20% else 0.0

[
  {
    "COMPOUND": "O=S(=O)(O)C1CC2C(c3ccccc31)N1ON2O1 (centres undefined)",
    "GROUP": 1.0
  },
  {
    "COMPOUND": "C/C(CC(N)=O)=C1\\C(=O)NN(c2ccccc2)C1=O",
    "GROUP": 1.0
  },
  {
    "COMPOUND": "OC1CCCC2OC2CC1 (centres undefined)",
    "GROUP": 0.0
  },
  {
    "COMPOUND": "COc1ccc2nccc(NCCCN3CCN(CCCNc4ccnc5ccc(OC)cc45)CC3)c2c1",
    "GROUP": 0.0
  },
  {
    "COMPOUND": "O=[N+]([O-])c1cc([N+](=O)[O-])c(/C=C/c2ccccc2Cl)cc1/C=C/c1ccccc1Cl",
    "GROUP": 0.0
  },
  {
    "COMPOUND": "CC1(C#N)CCCC(c2ccccc2)(c2ccccc2)C1=O (centres undefined)",
    "GROUP": 1.0
  }
]

Record `[Cl][Pt+2][Cl].[NH-]C1CCC1.[NH2-]` ; criterion: growth inhibition no lower than 20%. Met?
0.0

Record `CN(CC1=C(O)C(=O)C(CN(C)Cc2c(O)ccc3ccccc23)=C(O)C1=O)Cc1c(O)ccc2ccccc12` ; criterion: growth inhibition no lower than 20%. Met?
1.0

Record `O=c1c2ccccc2[nH]c2c(O)ccc(O)c12` ; criterion: growth inhibition no lower than 20%. Met?
0.0
